ASSAY SUMMARY: GHS categories as the set defines them, by LD50: 1 up to 5, 2 up to 50, 3 up to 300, 4 up to 2000, 5 above 2000 mg/kg
TEST CONDITIONS: rat; in vivo; po
Each record here notes measured GHS category.
Response field accepts a number only; no unit should be typed.

| COMPOUND | GHS category |
| --- | --- |
| NCC(O)CCl (stereo unspecified) | 4 |
| COC(=O)COc1nc(F)c(Cl)c(N)c1Cl | 5 |
| C=CC(C)(O)CCC=C(C)CC(C)C (stereo unspecified) | 5 |
| CC(C)OC(=O)c1ccccc1OC(N)=O | 5 |
| O=Cc1c(O)ccc2ccccc12 | 5 |

Fill in reported GHS category for this entry: "Clc1ccccc1-c1nc(-c2ccncc2)no1"
5

Fill in reported GHS category for this entry: "CCOC(=O)C(=O)Nc1ccncn1"
4

Fill in reported GHS category for this entry: CC(C)CCC1CCC(O)CC1 (stereo unspecified)
5

Fill in reported GHS category for this entry: O=C(O)C1C2C=CC(C2)C1C(=O)O (stereo unspecified)
5

Fill in reported GHS category for this entry: "CC(=O)CCC=C(C)CC/C=C(\C)CC/C=C(\C)CCC=C(C)C"
5

Fill in reported GHS category for this entry: O=C1OC(CBr)CC12CC(CBr)OC2=O (stereo unspecified)
5

Fill in reported GHS category for this entry: "CCCCCNCC(N)=O"
5

Fill in reported GHS category for this entry: "CC(=O)CC(=O)O[C@H]1C[C@@H](C)CC[C@@H]1C(C)C"
5
